assayed.target: human EP2 receptor (Homo sapiens (Human), UniProt P43116)
Sequence (P43116 whole entry): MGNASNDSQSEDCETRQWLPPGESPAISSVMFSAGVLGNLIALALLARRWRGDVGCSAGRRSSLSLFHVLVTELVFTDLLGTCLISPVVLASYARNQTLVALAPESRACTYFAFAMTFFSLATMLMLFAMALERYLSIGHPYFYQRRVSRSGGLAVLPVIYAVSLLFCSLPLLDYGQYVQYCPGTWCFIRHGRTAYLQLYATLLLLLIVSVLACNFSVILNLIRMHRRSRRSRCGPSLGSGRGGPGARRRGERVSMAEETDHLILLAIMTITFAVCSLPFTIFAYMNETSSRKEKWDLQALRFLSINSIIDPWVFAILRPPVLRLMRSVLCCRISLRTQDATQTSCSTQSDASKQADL
assay.name: Measurement of EP2 receptor binding affinity ([3H]PGE2 displacement, membrane fraction of HEK293 cells)
setup.conditions: [3H]PGE2 10 nM, HEK293 membrane fraction; Table 2; read-out: Ki value of EP2 receptor binding affinity

| compound | Ki [nM] |
| --- | --- |
| O=C(O)CNc1cccc(CN(Cc2ccc(-c3nccs3)cc2)S(=O)(=O)c2ccccn2)n1 [Example 3] | 1.9 |

###

// values below are reported pKi
assayed.target: human EP4 receptor (Homo sapiens (Human))
Sequence (P35408 whole entry): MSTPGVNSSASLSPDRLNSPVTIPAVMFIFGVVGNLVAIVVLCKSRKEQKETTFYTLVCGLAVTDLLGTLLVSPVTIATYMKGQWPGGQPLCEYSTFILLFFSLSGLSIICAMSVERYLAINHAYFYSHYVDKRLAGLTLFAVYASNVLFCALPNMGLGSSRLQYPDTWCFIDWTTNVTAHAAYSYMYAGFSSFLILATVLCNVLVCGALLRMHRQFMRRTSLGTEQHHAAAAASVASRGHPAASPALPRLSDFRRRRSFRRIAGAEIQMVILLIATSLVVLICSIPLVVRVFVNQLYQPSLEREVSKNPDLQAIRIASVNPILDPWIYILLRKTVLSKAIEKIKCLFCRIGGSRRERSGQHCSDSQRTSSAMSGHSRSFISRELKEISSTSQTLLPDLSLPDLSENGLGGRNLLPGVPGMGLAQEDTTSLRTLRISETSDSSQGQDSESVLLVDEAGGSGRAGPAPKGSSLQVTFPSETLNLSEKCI
assay.name: Measurement of EP4 receptor binding affinity ([3H]PGE2 displacement, membrane fraction of Chem-1 cells)
pKi: −log10 of the molar value. Counter-ions that a name gives are not always drawn.

| compound | pKi |
| --- | --- |
| O=C(O)CNc1cccc(CN(Cc2ccc(-c3nccs3)cc2)S(=O)(=O)c2ccc(F)cc2)n1 | 5.54 |
| O=C(O)CNc1cccc(CN(Cc2ccc(-c3nccs3)cc2)S(=O)(=O)c2cccnc2)n1 [Example 11, Trifluoroacetate] | 5.55 |
